src = ChEMBL document CHEMBL3872241

# TEST_DETAILS: Cytotoxicity against human HCT116 cells assessed as cell growth inhibition after 48 hrs by MTT assay
# Format: functional, cell-based
# ASSAY_CONDITIONS: HCT-116, 48 h
Consider the cut-off 9 µM. If the recorded IC50 is strictly smaller, the label is Satisfied; if not, the label is Not satisfied.

Example cases with answers are listed next.
# QUERY_SMILES, LABEL
records = [
    ("COc1cc(OC)cc(/C(C#N)=C/c2ccccc2)c1", "Not satisfied"),
    ("COc1cc(OC)cc(/C(C#N)=C/c2ccco2)c1", "Satisfied"),
    ("COc1cc(OC)cc(/C(C#N)=C/c2ccccc2Cl)c1", "Satisfied"),
    ("CCCCOc1ccc(/C=C(\\C#N)c2cc(OC)cc(OC)c2)cc1", "Not satisfied"),
]

Bench note: check whether `COc1cc(OC)cc(/C(C#N)=C/c2c(C)cc(C)cc2C)c1` shows IC50 below 9 µM
Not satisfied

Would you mind doing `COc1cc(OC)cc(/C(C#N)=C/c2c(F)cccc2Cl)c1` as well?
Not satisfied

Would you mind doing `CCOc1cccc(/C=C(\C#N)c2cc(OC)cc(OC)c2)c1` as well?
Not satisfied

Would you mind doing `COc1cc(OC)cc(/C(C#N)=C/c2ccc(C(F)(F)F)cc2)c1` as well?
Not satisfied
